Collected fraction ligated values appear next to each entry.
B1: F1*; the commonest letter at each place (parent)
chain: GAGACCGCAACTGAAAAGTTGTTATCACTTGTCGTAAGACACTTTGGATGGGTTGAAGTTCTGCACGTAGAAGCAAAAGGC

Variants of: B1
Assay: fraction ligated after 30 min (ligated reads / total reads); higher = more ligase activity
Details: with F1*sub RNA substrate (template-directed ligation), 42 °C
Reply: number alone, nothing else.

{"chain": "GAGACCGCAACTGAAAAGTTGTTATCACTTGTCGTAAGAGACTTTGGGTGGGTTGAAGTTCTGCACGTAGAAGCAAAAGGC", "metric-name": "fraction ligated", "value-measured": 0.786}
{"chain": "GAGACCGCAACTGAAAAGTTGTTATCACATGTCGTAAGACACTTTTGATGGGTTGAAGTTCTGCACGTAGAAGCAAAAGGC", "metric-name": "fraction ligated", "value-measured": 0.793}
{"chain": "GAGACCGCAACTGAAAAGTTGTCATCACTTGTCGTAAGATACTTTGGATGGGTTGAAGTTCTGCACGTAGAAGCAAAAGGC", "metric-name": "fraction ligated", "value-measured": 0.811}
{"chain": "GAGACCGCAACTGAAAAGTTGTAATCACTTGTCGTAAGACACATTGGATGGGTTGAAGTTCTGCACGTAGAAGCAAAAGGC", "metric-name": "fraction ligated", "value-measured": 0.803}
{"chain": "GAGACCGCAACTGAAAAGTTGTTATCACTAGTCGTAACACACTTTGGATGGGTTGAAGTTCTGCACGTAGAAGCAAAAGGC", "metric-name": "fraction ligated", "value-measured": 0.795}

Then there is this variant:
QUERY: Fill blank: measured fraction ligated of the variant GAGACCGCAACTGAAAAGTTGTTATCACTTGTCGTAAGACTCTTTGGATGGGTTGTAGTTCTGCACGTAGAAGCAAAAGGC is ____.
RESULT: 0.792
